Assay system Angiotensin-converting enzyme (Oryctolagus cuniculus); read-out recorded as log10 IC50.
Starred links: 1 amine or outer side, 2 acyl side, 3 side chain; linkers in the order of their positions; H or OH if unused. Non-standard residues stand in square brackets, D forms with d. Residues, ends and D or L forms follow the SMILES beside them. *: point of attachment. X2 = O=C(CCC(=O)[*:2])[C@H](Cc1ccccc1)N[*:1]; X1 = O=C(CCC(=O)[*:2])[C@@H]1CCCN1[*:1]; Cyclobutanecarbonyl = O=C(C1CCC1)*; pGlu = O=C1CC[C@@H](C(=O)O)N1; Nle = CCCC[C@H](N)C(=O)O
The base-10 logarithm of IC50, taken with IC50 in nM, is what appears here.

// solved cases for log10 IC50 follow
• CC[C@H](C)[C@H](NC(=O)[C@H](CCC(N)=O)NC(=O)[C@@H]1CCCN1C(=O)[C@H](CCCNC(=N)N)NC(=O)[C@@H]1CCCN1C(=O)[C@H](Cc1c[nH]c2ccccc12)NC(=O)[C@@H]1CCC(=O)N1)C(=O)N1CCC[C@H]1C(=O)N1CCC[C@H]1C(=O)O [TEPROTIDE] = 3.04
• CCCC[C@H](NC(=O)[C@@H]1CCCN1C(=O)CCC(=O)[C@@H]1CCCN1C(=O)[C@H](Cc1ccc(O)cc1)NC(=O)C1CCC1)C(=O)N[C@@H](Cc1ccccc1)C(=O)CCC(=O)N1CCC[C@H]1C(=O)O (Cyclobutanecarbonyl-Y[X1]P[Nle][X2]P-OH) = 0.90
• CC[C@H](C)[C@H](NC(=O)[C@H](CCC(N)=O)NC(=O)[C@@H]1CCCN1C(=O)[C@H](CCCN=C(N)N)NC(=O)[C@@H]1CCCN1C(=O)[C@H](Cc1ccc(O)cc1)NC(=O)[C@@H]1CCC(=O)N1)C(=O)N1CCC[C@H]1C(=O)N1CCC[C@H]1C(=O)O ([pGlu]YPRPQIPP-OH) = 3.41
• C[C@H](NC(=O)[C@H](Cc1ccccc1)NC(=O)[C@H](CCCCN)NC(=O)C1CCC1)C(=O)N1CCC[C@H]1C(=O)O (Cyclobutanecarbonyl-KFAP-OH) = 1.60
• CC[C@H](C)[C@H](NC(=O)[C@H](CCC(N)=O)NC(=O)[C@@H]1CCCN1C(=O)CNC(=O)[C@@H]1CCCN1C(=O)[C@H](Cc1c[nH]c2ccccc12)NC(=O)[C@@H]1CCC(=O)N1)C(=O)N1CCC[C@H]1C(=O)N1CCC[C@H]1C(=O)O ([pGlu]WPGPQIPP-OH) = 3.28

Angiotensin-converting enzyme (Oryctolagus cuniculus) assay, compound NCCCC[C@H](NC(=O)[C@@H]1CCCN1C(=O)CNC(=O)[C@@H]1CCCN1C(=O)[C@H](Cc1ccc(O)cc1)NC(=O)C1CCC1)C(=O)N[C@@H](Cc1ccccc1)C(=O)NCC(=O)N1CCC[C@H]1C(=O)O (Cyclobutanecarbonyl-YPGPKFGP-OH) , recorded log10 IC50 = 2.53

Angiotensin-converting enzyme (Oryctolagus cuniculus) assay, compound NCCCC[C@H](NC(=O)[C@@H]1CCCN1C(=O)CCC(=O)[C@@H]1CCCN1C(=O)[C@H](Cc1ccc(O)cc1)NC(=O)C1CCC1)C(=O)N[C@@H](Cc1ccccc1)C(=O)CCC(=O)N1CCC[C@H]1C(=O)O (Cyclobutanecarbonyl-Y[X1]PK[X2]P-OH) , recorded log10 IC50 = 0.53

Angiotensin-converting enzyme (Oryctolagus cuniculus) assay, compound C[C@H](NC(=O)[C@H](Cc1ccccc1)NC(=O)[C@H](CCCCN)NC(=O)[C@@H]1CCCN1C(=O)[C@H](CCCN=C(N)N)NC(=O)[C@@H]1CCCN1C(=O)[C@H](Cc1c[nH]c2ccccc12)NC(=O)[C@@H]1CCC(=O)N1)C(=O)N1CCC[C@H]1C(=O)O ([pGlu]WPRPKFAP-OH) , recorded log10 IC50 = 1.70
